study_system: S100A6 (human, UniProt P06703 1-90)
experimental_protocol: other fluorescence titration
Ends that are not written are not given here.
observation_type: pKd
One number for each entry, as −log10 of the molar value.

Param item = Ac-AMVSEFLKQAWFIE [Annexin I peptide] ; retrieve measured pKd.
4.77
